# test: recombinant barcode read abundance after kanamycin selection (control-corrected) (log10(CPM+1)); higher = more efficient recombination; sequences stand for … in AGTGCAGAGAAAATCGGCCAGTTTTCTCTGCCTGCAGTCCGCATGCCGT…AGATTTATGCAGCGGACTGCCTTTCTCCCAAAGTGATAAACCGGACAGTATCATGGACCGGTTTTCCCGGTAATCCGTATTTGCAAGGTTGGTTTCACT; site = the 11-nt target
Use 0.5 as the dividing line for recombinant barcode read abundance (log10), with the line itself on the yes side and lower values as no.

seq="CTATGACCTTGGGTTCTAACCTGTTGCCT (site CTATGACCTAA)" classification=no
seq="CCTCGCACTTGGGTTCTAACCTGTTGCCT (site CCTCGCACTAG)" classification=no
seq="CCGCGTGCTTGGGTTCTAACCTGTTGCCT (site CGGCGTGCTAG)" classification=yes
seq="CCGTATGCTTGGGTTCTAACCTGTTGCCT (site CCGCATGCTAG)" classification=no
seq="TAGTGTTCTTGGGTTCTAACCTGTTGCAT (site TAGTGTTCTAT)" classification=yes
seq="CATCCGACTTGGGTTCTAACCTGTTGCCT (site CATCCGCCTAG)" classification=no
seq="AGTTAGTCTTGGGTTCTAACCTGTTGCAG (site GTACGCACTAG)" classification=no
seq="CTAAGCTCTTGGGTTCTAACCTGTTGCTG (site CTAAGCTCTCA)" classification=yes
seq="ACTGTAACTTGGGTTCTAACCTGTTGCTT (site ACTTTAACTAA)" classification=no
seq="GACGCCACTTGGGTTCTAACCTGTTGCCT (site AACGCCACTAG)" classification=no
seq="AAGCCACCTTGGGTTCTAACCTGTTGCCT (site AAGCCACCTAG)" classification=yes

----------
# test: recombinant UMI read abundance after kanamycin selection (control-corrected) (log10(CPM+1)); higher = more efficient recombination; extreme values may be limits of the assay; sequences stand for … in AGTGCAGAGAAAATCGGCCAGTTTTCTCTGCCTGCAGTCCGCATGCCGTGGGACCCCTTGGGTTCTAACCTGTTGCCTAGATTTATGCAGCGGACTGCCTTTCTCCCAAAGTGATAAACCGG…AGGTTGGTTTCACT; site = the 11-nt donor
The following sequences are listed with their measured recombinant UMI read abundance (log10) values.
observedProperty: recombinant UMI read abundance (log10)

seq="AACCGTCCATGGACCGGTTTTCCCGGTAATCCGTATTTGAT (site AACTGTCCTAT)" observedproperty="recombinant UMI read abundance (log10)" recordedresult=0.00892
seq="TAAATTCCATGGACCGGTTTTCCCGGTAATCCGTATTTGTA (site TAAAGTCCTTA)" observedproperty="recombinant UMI read abundance (log10)" recordedresult=0.471
seq="CCTTTAGCATGGACCGGTTTTCCCGGTAATCCGTATTTGTG (site CCATTAGCTCA)" observedproperty="recombinant UMI read abundance (log10)" recordedresult=0.00718
seq="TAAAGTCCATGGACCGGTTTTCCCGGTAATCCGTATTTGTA (site TAAAGTCCTTA)" observedproperty="recombinant UMI read abundance (log10)" recordedresult=0.722
seq="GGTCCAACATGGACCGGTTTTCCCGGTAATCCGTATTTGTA (site GGTCCAACTTA)" observedproperty="recombinant UMI read abundance (log10)" recordedresult=0.431
seq="ACCTAGCCATGGACCGGTTTTCCCGGTAATCCGTATTTGGG (site ACCTAGACTCC)" observedproperty="recombinant UMI read abundance (log10)" recordedresult=0.00935
seq="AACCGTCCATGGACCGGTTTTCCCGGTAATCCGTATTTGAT (site AACCGTCCTCT)" observedproperty="recombinant UMI read abundance (log10)" recordedresult=0.00582
seq="TTTGTGGCATGGACCGGTTTTCCCGGTAATCCGTATTTGCT (site TTTGTGGCTAG)" observedproperty="recombinant UMI read abundance (log10)" recordedresult=0.113
seq="CGATCATCATGGACCGGTTTTCCCGGTAATCCGTATTTGTT (site CGATCATCTAG)" observedproperty="recombinant UMI read abundance (log10)" recordedresult=0
seq="GGTACGTCATGGACCGGTTTTCCCGGTAATCCGTATTTGTA (site GGTACGTCTGA)" observedproperty="recombinant UMI read abundance (log10)" recordedresult=0
seq="GAATGCTCATGGACCGGTTTTCCCGGTAATCCGTATTTGAA (site CAATGCTCTTT)" observedproperty="recombinant UMI read abundance (log10)" recordedresult=1.08
